Recorded Germination rate values for a group of compounds are listed next.
# Test system: corn (Krasnodar 385 MV variety)
# assay-details: Corn seed treatment with BHMPA salts: germination energy and germination rate
# Assay type: in vivo
# measurement-context: 1·10^−8% solution
Write the answer as a number in %, unit excluded.

O=P([O-])(CO)CO.O=P([O-])(CO)CO.[Ca+2] [Ca-salt, Calcium BHMPA Salt] ... 84.2
O=P([O-])(CO)CO.O=P([O-])(CO)CO.[Mg+2] [Mg-salt, Magnesium BHMPA Salt] ... 93.3

What measured Germination rate is associated with O=P([O-])(CO)CO.[Na+] [Na-salt, Sodium BHMPA Salt] on corn (Krasnodar 385 MV variety)?
87.5

Give Germination rate (corn (Krasnodar 385 MV variety)) of the following compound: O.O.O=P([O-])(CO)CO.O=P([O-])(CO)CO.[Mn+2] [Mn-salt, Manganese BHMPA Salt]
87.5

What Germination rate appears in the records for this compound with corn (Krasnodar 385 MV variety)? O=P([O-])(CO)CO.O=P([O-])(CO)CO.[Zn+2] [Zn-salt, Zinc BHMPA Salt]
90.8

Form: Entry = O.O.O=P([O-])(CO)CO.O=P([O-])(CO)CO.[Co+2] [Co-salt, Cobalt BHMPA Salt] | System = corn (Krasnodar 385 MV variety) | Germination rate = ____
84.7
